# PROTOCOL TEXT: Cytotoxicity against Pgp deficient human LCC6 cells after 72 hrs by sulforhodamine B test
# Format: functional, cell-based
# EXPERIMENTAL PARAMETERS: C6, 72 h
RECORDED ENDPOINT: pIC50
Value format note: pIC50 is -log10 of concentration (mol/L); just state the number.

Which pIC50 value is on record for `COc1ccccc1CC(=O)O[C@H]1C(=O)[C@@]2(C)[C@H]([C@H](OC(=O)c3ccccc3)[C@]3(O)C[C@H](OC(=O)[C@H](O)[C@H](C=C(C)C)NC(=O)OC(C)(C)C)C(C)=C1C3(C)C)[C@]1(OC(C)=O)CO[C@@H]1C[C@@H]2O` ?
8.64

Same question, `COc1cccc(C(=O)O[C@H]2[C@@H]3[C@]4(OC(C)=O)CO[C@@H]4C[C@H](O)[C@@]3(C)C(=O)[C@H](OC(=O)C3CC3)C3=C(C)[C@@H](OC(=O)[C@H](O)[C@H](C=C(C)C)NC(=O)OC(C)(C)C)C[C@]2(O)C3(C)C)c1` this time
9.00

Same question, `COc1ccc(CC(=O)O[C@H]2C(=O)[C@@]3(C)[C@H]([C@H](OC(=O)c4cccc(OC)c4)[C@]4(O)C[C@H](OC(=O)[C@H](O)[C@H](C=C(C)C)NC(=O)OC(C)(C)C)C(C)=C2C4(C)C)[C@]2(OC(C)=O)CO[C@@H]2C[C@@H]3O)cc1` this time
9.40

Same question, `C=CCC[C@H](NC(=O)OC(C)(C)C)[C@@H](O)C(=O)O[C@H]1C[C@@]2(O)[C@@H](OC(=O)c3cccc(OC)c3)[C@@H]3[C@]4(OC(C)=O)CO[C@@H]4C[C@H](O)[C@@]3(C)C(=O)[C@H](OC(=O)CC)C(=C1C)C2(C)C` this time
9.05

* * *

# PROTOCOL TEXT: Cytotoxicity against Pgp deficient human LCC6 cells after 72 hrs by sulforhodamine B test
# Format: functional, cell-based
# EXPERIMENTAL PARAMETERS: C6, 72 h
RECORDED ENDPOINT: pIC50
Value format note: pIC50 is -log10 of concentration (mol/L); just state the number.

Which pIC50 value is on record for `CCC(=O)O[C@H]1C(=O)[C@@]2(C)[C@H]([C@H](OC(=O)c3cccc(OC)c3)[C@]3(O)C[C@H](OC(=O)[C@H](O)[C@@H](NC(=O)OC(C)(C)C)[C@H]4CC4(C)C)C(C)=C1C3(C)C)[C@]1(OC(C)=O)CO[C@@H]1C[C@@H]2O` ?
9.32

Same question, `CC(=O)O[C@H]1C(=O)[C@@]2(C)[C@H]([C@H](OC(=O)c3cccc(C)c3)[C@]3(O)C[C@H](OC(=O)[C@H](O)[C@H](C=C(C)C)NC(=O)OC(C)(C)C)C(C)=C1C3(C)C)[C@]1(OC(C)=O)CO[C@@H]1C[C@@H]2O` this time
8.82

Same question, `CC(=O)O[C@@]12CO[C@@H]1C[C@H](O)[C@@]1(C)C(=O)[C@H](OC(=O)c3cccc4ccccc34)C3=C(C)[C@@H](OC(=O)[C@H](O)[C@H](C=C(C)C)NC(=O)OC(C)(C)C)C[C@@](O)([C@@H](OC(=O)c4ccccc4)[C@H]21)C3(C)C` this time
8.28

Same question, `CCC(=O)O[C@H]1C(=O)[C@@]2(C)[C@H]([C@H](OC(=O)c3ccccc3)[C@]3(O)C[C@H](OC(=O)[C@H](O)[C@H](CC(C)C)NC(=O)C4CCCC4)C(C)=C1C3(C)C)[C@]1(OC(C)=O)CO[C@@H]1C[C@@H]2O` this time
8.20

Same question, `COc1cccc(C(=O)O[C@H]2[C@@H]3[C@]4(OC(C)=O)CO[C@@H]4C[C@H](O)[C@@]3(C)C(=O)[C@H](OC(C)=O)C3=C(C)[C@@H](OC(=O)[C@H](O)[C@H](C=C(C)C)NC(=O)OC(C)(C)C)C[C@]2(O)C3(C)C)c1` this time
9.22

Same question, `CCC(=O)O[C@H]1C(=O)[C@@]2(C)[C@H]([C@H](OC(=O)c3ccccc3)[C@]3(O)C[C@H](OC(=O)[C@H](O)[C@H](C=C(C)C)NC(=O)C4CCCCC4)C(C)=C1C3(C)C)[C@]1(OC(C)=O)CO[C@@H]1C[C@@H]2O` this time
8.89

Same question, `CCC(=O)O[C@H]1C(=O)[C@@]2(C)[C@H]([C@H](OC(=O)c3ccccc3)[C@]3(O)C[C@H](OC(=O)[C@H](O)[C@H](C=C(C)C)NC(=O)C4=CCCCC4)C(C)=C1C3(C)C)[C@]1(OC(C)=O)CO[C@@H]1C[C@@H]2O` this time
8.92

Same question, `CC(=O)O[C@@]12CO[C@@H]1C[C@H](O)[C@@]1(C)C(=O)[C@H](OC(=O)CCc3ccccc3)C3=C(C)[C@@H](OC(=O)[C@H](O)[C@H](C=C(C)C)NC(=O)OC(C)(C)C)C[C@@](O)([C@@H](OC(=O)c4ccccc4)[C@H]21)C3(C)C` this time
8.29

* * *

# PROTOCOL TEXT: Cytotoxicity against Pgp deficient human LCC6 cells after 72 hrs by sulforhodamine B test
# Type: functional, cell-based
# EXPERIMENTAL PARAMETERS: C6, 72 h
For each of the molecules below, state its pIC50.
Value format note: pIC50 is -log10 of concentration (mol/L); just state the number.

Which pIC50 value is on record for `COc1cccc(CC(=O)O[C@H]2C(=O)[C@@]3(C)[C@H]([C@H](OC(=O)c4ccccc4)[C@]4(O)C[C@H](OC(=O)[C@H](O)[C@H](C=C(C)C)NC(=O)OC(C)(C)C)C(C)=C2C4(C)C)[C@]2(OC(C)=O)CO[C@@H]2C[C@@H]3O)c1` ?
8.68

Same question, `CCC(=O)O[C@H]1C(=O)[C@@]2(C)[C@H]([C@H](OC(=O)c3cccc(OC)c3)[C@]3(O)C[C@H](OC(=O)[C@H](O)[C@H](C=C(C)C)NC(=O)OC4CCCCC4)C(C)=C1C3(C)C)[C@]1(OC(C)=O)CO[C@@H]1C[C@@H]2O` this time
8.91

Same question, `COc1cccc(C(=O)O[C@H]2[C@@H]3[C@]4(OC(C)=O)CO[C@@H]4C[C@H](O)[C@@]3(C)C(=O)[C@H](OC(=O)OCc3ccccc3)C3=C(C)[C@@H](OC(=O)[C@H](O)[C@H](C=C(C)C)NC(=O)OC(C)(C)C)C[C@]2(O)C3(C)C)c1` this time
8.92

Same question, `CC(=O)O[C@@]12CO[C@@H]1C[C@H](O)[C@@]1(C)C(=O)[C@H](OC(=O)OCc3ccccc3)C3=C(C)[C@@H](OC(=O)[C@H](O)[C@H](C=C(C)C)NC(=O)OC(C)(C)C)C[C@@](O)([C@@H](OC(=O)c4ccccc4)[C@H]21)C3(C)C` this time
8.74

* * *

# PROTOCOL TEXT: Cytotoxicity against Pgp deficient human LCC6 cells after 72 hrs by sulforhodamine B test
# Type: functional, cell-based
# EXPERIMENTAL PARAMETERS: C6, 72 h
RECORDED ENDPOINT: IC50 (nM)
I only need the number, in nM, no unit after it.

Which IC50 value is on record for `CCC(=O)O[C@H]1C(=O)[C@@]2(C)[C@H]([C@H](OC(=O)c3cccc(OC)c3)[C@]3(O)C[C@H](OC(=O)[C@H](O)[C@H](CC(C)C)NC(=O)C4CCCCC4)C(C)=C1C3(C)C)[C@]1(OC(C)=O)CO[C@@H]1C[C@@H]2O` ?
1

Same question, CC(=O)O[C@@]12CO[C@@H]1C[C@H](O)[C@@]1(C)C(=O)[C@H](O)C3=C(C)[C@@H](OC(=O)[C@H](O)[C@@H](NC(=O)OC(C)(C)C)c4ccccc4)C[C@@](O)([C@@H](OC(=O)c4ccccc4)[C@H]21)C3(C)C.O.O.O [DOCETAXEL] this time
1

Same question, `COC(=O)O[C@H]1C(=O)[C@@]2(C)[C@H]([C@H](OC(=O)c3cccc(OC)c3)[C@]3(O)C[C@H](OC(=O)[C@H](O)[C@H](C=C(C)C)NC(=O)OC(C)(C)C)C(C)=C1C3(C)C)[C@]1(OC(C)=O)CO[C@@H]1C[C@@H]2O` this time
0.6

Same question, `CCC(=O)O[C@H]1C(=O)[C@@]2(C)[C@H]([C@H](OC(=O)c3ccccc3)[C@]3(O)C[C@H](OC(=O)[C@H](O)[C@H](C=C(C)C)NC(=O)C4CCCC4)C(C)=C1C3(C)C)[C@]1(OC(C)=O)CO[C@@H]1C[C@@H]2O` this time
1.1

Same question, `CCC(=O)O[C@H]1C(=O)[C@@]2(C)[C@H]([C@H](OC(=O)c3cccc(OC)c3)[C@]3(O)C[C@H](OC(=O)[C@H](O)[C@H](CC(C)C)NC(=O)OC4CCCC4)C(C)=C1C3(C)C)[C@]1(OC(C)=O)CO[C@@H]1C[C@@H]2O` this time
0.76

Same question, `COc1ccccc1C(=O)O[C@H]1C(=O)[C@@]2(C)[C@H]([C@H](OC(=O)c3ccccc3)[C@]3(O)C[C@H](OC(=O)[C@H](O)[C@H](C=C(C)C)NC(=O)OC(C)(C)C)C(C)=C1C3(C)C)[C@]1(OC(C)=O)CO[C@@H]1C[C@@H]2O` this time
2.1

Same question, `CCC(=O)O[C@H]1C(=O)[C@@]2(C)[C@H]([C@H](OC(=O)c3cccc(N=[N+]=[N-])c3)[C@]3(O)C[C@H](OC(=O)[C@H](O)[C@H](CC(C)C)NC(=O)OC(C)(C)C)C(C)=C1C3(C)C)[C@]1(OC(C)=O)CO[C@@H]1C[C@@H]2O` this time
1.1

Same question, `CCC(=O)O[C@H]1C(=O)[C@@]2(C)[C@H]([C@H](OC(=O)c3ccccc3)[C@]3(O)C[C@H](OC(=O)[C@H](O)[C@H](CC(C)C)NC(=O)OC4CCCC4)C(C)=C1C3(C)C)[C@]1(OC(C)=O)CO[C@@H]1C[C@@H]2O` this time
2.6

Where do these numbers come from? They come from ChEMBL document CHEMBL1150351.
